System: Staphylococcus hominis
Assay comment: Antibacterial activity against Methicillin-resistant Staphylococcus hominis MB124 after 24 hrs by microdilution assay
Type: functional
Experimental conditions: MB124, 24 h
Property: MIC

Request: Please report the recorded MIC for COc1ccc(-c2cc(=O)c3c(O)c(OC)c(OC)cc3o2)cc1O [EUPATORIN] .
Response: > 128 µg/mL

Request: For the compound `CC1=CC(=O)O[C@@H]1C/C=C(\C)CC[C@@H]1[C@@]2(C)CCC[C@@](C)(CO)[C@@H]2[C@@H](O)C[C@@]1(C)O` , what MIC is on record?
Response: > 128 µg/mL

Request: Can you look up the measured MIC of COC(=O)[C@]1(C)CCC[C@]2(C)[C@H]3CCC(C)(/C=C/c4occc4C)O[C@]3(C)CC[C@H]21 (stereo not given in full) for me?
Response: 309 µM

Request: So what does the record say about MIC for CC1=CC(=O)O[C@@H]1C/C=C(\C)CC[C@@H]1[C@@]2(C)CCC[C@@]3(C)C(O)O[C@@H](C[C@@]1(C)O)[C@H]23 (stereo not given in full) ?
Response: > 128 µg/mL

Request: Value lookup for MIC; key = `COC(=O)[C@]1(C)CCC[C@@]2(C)[C@H]1CC[C@@](C)(O)[C@@H]2CC/C(C)=C/C[C@H]1OC(=O)C=C1C`
Response: 296 µM

The measured values listed here are drawn from ChEMBL document CHEMBL4610084.
